Hey, just so you know, these numbers are from PubChem BioAssay.

# target: Neurogenic locus notch homolog protein 3 (Homo sapiens) (UniProt Q9UM47)
# Sequence (Q9UM47 whole entry, looked up): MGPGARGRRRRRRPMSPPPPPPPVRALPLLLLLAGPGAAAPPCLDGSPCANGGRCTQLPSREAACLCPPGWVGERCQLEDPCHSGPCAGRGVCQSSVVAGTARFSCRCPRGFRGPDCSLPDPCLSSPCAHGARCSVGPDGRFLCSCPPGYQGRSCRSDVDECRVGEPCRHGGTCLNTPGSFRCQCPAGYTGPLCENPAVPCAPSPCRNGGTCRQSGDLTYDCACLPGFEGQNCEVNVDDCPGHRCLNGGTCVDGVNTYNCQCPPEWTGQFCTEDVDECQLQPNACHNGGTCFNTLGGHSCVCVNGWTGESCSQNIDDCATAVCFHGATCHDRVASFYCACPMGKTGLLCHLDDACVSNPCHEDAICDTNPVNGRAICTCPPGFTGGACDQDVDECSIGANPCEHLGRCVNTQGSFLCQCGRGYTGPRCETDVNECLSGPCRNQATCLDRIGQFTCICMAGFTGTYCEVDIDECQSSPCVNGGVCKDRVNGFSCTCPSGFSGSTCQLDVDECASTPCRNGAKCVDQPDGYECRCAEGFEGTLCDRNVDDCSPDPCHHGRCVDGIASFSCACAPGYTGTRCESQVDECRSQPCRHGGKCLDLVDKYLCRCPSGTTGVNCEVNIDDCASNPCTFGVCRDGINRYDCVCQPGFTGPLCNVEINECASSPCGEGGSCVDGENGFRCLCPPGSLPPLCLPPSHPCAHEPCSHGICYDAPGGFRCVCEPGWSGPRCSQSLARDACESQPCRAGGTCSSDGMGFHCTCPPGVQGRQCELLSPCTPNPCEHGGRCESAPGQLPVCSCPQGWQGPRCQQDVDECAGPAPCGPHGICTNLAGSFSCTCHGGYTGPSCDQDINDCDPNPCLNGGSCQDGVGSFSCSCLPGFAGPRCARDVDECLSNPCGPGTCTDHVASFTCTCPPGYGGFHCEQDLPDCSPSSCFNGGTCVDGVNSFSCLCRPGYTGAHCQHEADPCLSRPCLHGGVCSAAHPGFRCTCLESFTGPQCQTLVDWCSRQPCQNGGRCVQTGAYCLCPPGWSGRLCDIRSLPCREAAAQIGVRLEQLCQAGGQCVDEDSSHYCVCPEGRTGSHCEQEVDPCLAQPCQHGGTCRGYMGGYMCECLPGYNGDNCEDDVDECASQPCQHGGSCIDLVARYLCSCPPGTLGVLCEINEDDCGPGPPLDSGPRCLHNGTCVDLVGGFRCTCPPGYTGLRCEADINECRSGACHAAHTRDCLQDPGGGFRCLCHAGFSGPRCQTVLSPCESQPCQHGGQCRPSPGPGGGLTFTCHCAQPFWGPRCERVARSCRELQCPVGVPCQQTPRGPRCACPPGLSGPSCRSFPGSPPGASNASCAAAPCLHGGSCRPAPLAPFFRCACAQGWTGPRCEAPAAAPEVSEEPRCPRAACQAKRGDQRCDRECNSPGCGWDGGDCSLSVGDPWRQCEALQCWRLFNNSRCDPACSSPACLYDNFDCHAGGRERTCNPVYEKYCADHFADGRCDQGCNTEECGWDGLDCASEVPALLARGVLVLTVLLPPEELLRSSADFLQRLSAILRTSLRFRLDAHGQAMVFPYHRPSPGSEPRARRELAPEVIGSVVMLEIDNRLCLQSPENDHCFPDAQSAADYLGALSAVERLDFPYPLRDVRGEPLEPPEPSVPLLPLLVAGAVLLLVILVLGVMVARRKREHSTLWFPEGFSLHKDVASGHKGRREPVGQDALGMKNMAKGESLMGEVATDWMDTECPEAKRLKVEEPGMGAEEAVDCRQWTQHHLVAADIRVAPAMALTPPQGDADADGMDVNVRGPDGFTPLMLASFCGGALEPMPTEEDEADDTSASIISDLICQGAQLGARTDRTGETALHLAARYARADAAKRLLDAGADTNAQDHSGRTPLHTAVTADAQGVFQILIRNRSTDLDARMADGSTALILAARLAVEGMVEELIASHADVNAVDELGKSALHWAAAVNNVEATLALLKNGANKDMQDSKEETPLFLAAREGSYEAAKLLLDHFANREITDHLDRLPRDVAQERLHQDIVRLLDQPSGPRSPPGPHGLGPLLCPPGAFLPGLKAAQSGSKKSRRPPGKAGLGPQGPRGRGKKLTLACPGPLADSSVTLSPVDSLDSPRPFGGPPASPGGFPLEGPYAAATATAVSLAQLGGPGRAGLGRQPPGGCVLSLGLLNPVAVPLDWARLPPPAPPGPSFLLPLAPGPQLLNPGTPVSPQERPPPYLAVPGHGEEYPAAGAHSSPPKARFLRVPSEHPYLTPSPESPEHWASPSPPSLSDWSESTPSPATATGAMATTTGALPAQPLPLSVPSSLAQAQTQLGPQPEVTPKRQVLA
# assay-comment: NOTCH3 binders on small-molecule microarray, primary screen, biochemical, 635/667 nm fluorescence (AID 1096)
# recorded-conditions: NOTCH3 binding, 635 nm fluorescence, higher = more signal
Lab note: compare composite z-score against 0.9. Equal or greater, write 1. Smaller, write -1.

1. CCCCC=C[C@@H](NC(=O)c1ccco1)c1ccccc1: -1
2. CC(C)Cc1ccc(CN2CC[C@@H](NS(=O)(=O)c3ccccc3)C2)cc1: -1
3. CO[C@H]1O[C@H](CO)[C@@H](OC(=O)Nc2ccc(Oc3ccccc3)cc2)[C@H](OC(=O)Nc2ccccc2)[C@H]1OC(=O)Nc1ccccc1: 1
4. Cc1ccc(S[C@]2(C(=O)O)CC(=O)N(C3Cc4ccccc4C3)[C@@H]2c2ccc(CO)cc2I)cc1: -1
5. CC(C)c1ccc(NN2C(C(O)c3c(F)cccc3Cl)C=CC3C(=O)N(c4ccccc4)C(=O)C32)cc1 (stereo unspecified): 1
6. O=C1OCCC=C[C@H]2OC34C=CCN(Cc5ccccc5)C(=O)[C@H]3N(CCCCCCO)C(=O)[C@@H]4C12 (stereo partly specified): -1
7. C=C[C@H](COC(C)=O)N(Cc1ccc(OC(C)=O)c(OC)c1)S(=O)(=O)c1ccc(Br)cc1: -1
8. CCOC(=O)C1=C[C@@H](C(C)C)N(S(=O)(=O)c2ccc(C)cc2)[C@H]1c1ccc(C(C)C)cc1: 1
9. COc1ccc([Si](C)(C)[C@@H]2[C@@H](CC(=O)N3CCC[C@H]3CO)O[C@]3(C(=O)N(C)c4c(Br)cc(C)cc43)[C@H]2C)cc1: 1
10. COC(=O)[C@@]1(Cc2ccc(F)cc2)[C@H]2c3cc(C(=O)N(C)C)n(CCc4ccccn4)c3C[C@H]2CN1C(=O)c1ccccc1: -1
11. C=CC[C@@H](OC(=O)Nc1ccc(OC)cc1)c1ccc(O)c2ccccc12: 1
12. O=C1O[C@H](c2ccccc2)[C@H](c2ccccc2)N2[C@H]1[C@@H](C(=O)N1CCN(c3ncccn3)CC1)[C@]1(C(=O)Nc3ccccc31)[C@H]2c1ccc(OCCO)cc1: 1
13. C=C(CCCC)C(=O)CC[C@H](OC(=O)c1cccnc1)c1cccc(OCCO)c1: -1
14. CCCN1C(=O)[C@@]2(CCC(=O)OC(C)(C)C)N=C(c3ccc(OCCCO)cc3)O[C@H]2c2ccccc21: -1
15. Cc1ccccc1C(O)C1C=CC2C(=O)N(C)C(=O)C2N1Nc1ccccc1 (stereo unspecified): 1
16. COC(=O)[C@@]1(Cc2ccc(F)cc2)[C@H]2c3cc(C(=O)N4CCCC4)n(Cc4cccc5ccccc45)c3C[C@H]2CN1C(=O)c1ccccc1: 1
